Origin of measurements: the supplement of paper PMC8728848

Molecular target: Neu5Ac(a2-6)Gal(b1-4)GlcNAc(b1-2)Man(a1-6)[Gal(b1-4)GlcNAc(b1-2)Man(a1-3)]Man(b1-4)GlcNAc(b1-4)GlcNAc
Test: glycan array binding signal (z-score within array); higher = stronger binding
Details: glycan notation: IUPAC condensed, linker removed
This excerpt belongs to a sample that is enriched for the strongest signals.
PROPERTY NAME: glycan array binding signal (z-score)
Numbers only.

Some entries whose results are on file:
binder="CD34 (Homo sapiens), P28906 (protein) MGSSHHHHHHSSGLVPRGSHMSTSLATSPTKPYTSSSPILSDIKAEIKCSGIREVKLTQGICLEQNKTSSCAEFKKDRGEGLARVLCGEEQADADAGAQVCSLLLAQSEVRPQCLLLVLANRTEISSKLQLMKKHQSDLKKLGILDFTEQDVASHQSYSQKT" observed_result=-0.644
binder="LTL (Lotus tetragonolobus), P19664 (protein) VSFNYTEFKDDGSLILQGDAKIWTDGRLAMPTDPLVNNPKTTRSAGRALYATPVPIWDSATGNVASFVTSFNFLFVIRELKYTPTDGLVFFLAPVGTEIPSGSTGGFLGIFDGSNGFNQFVAVEFDSYHNIWDPKSLRSSHVGIDVNSIMSLKAVNWNRVSGSLEKATIIYDSQTNILSVVMTSQNGQITTIYGTIDLKTVLPEKVSVGFSATTGNPEREKHDIYSWSFTSTLKEPEEQA" observed_result=-0.242

Lookup: Given Cohesin-hDECTIN-1 (Homo sapiens) (protein) LDITSHHHHHHDDLDAVRIKVDTVNAKPGDTVRIPVRFSGIPSKGIANCDFVYSYDPNVLEIIEIEPGDIIVDPNPDKSFDTAVYPDRKIIVFLFAEDSGTGAYAITKDGVFATIVAKVKEGAPNGLSVIKFVEVGGFANNDLVEQKTQFFDGGVNVGDTTEPATPTTPVTTPTTTDDLDAASSSPCPPNWIIYEKSCYLFSMSLNSWDGSKRQCWQLGSNLLKIDSSNELGFIVKQVSSQPDNSFWIGLSRPQTEVPWLWEDGSTFSSNLFQIRTTATQENPSPNCVWIHVSVIYDQLCSVPSYSICEKKFM , state its recorded glycan array binding signal (z-score).
Found: -0.561
